Measured pIC50 by item
# target.under.test: sRAGE binding to S100b (Homo sapiens)
# Construct: extracellular domain can be isolated by proteolysis of RAGE to generate soluble RAGE (sRAGE) comprised of the V and C domains
# assay.name: RAGE binding assay (ELISA), S100b as the RAGE ligand
# condition.set: compounds tested in hydrochloride salt form, concentration at which 50% signal has been inhibited
pIC50: −log10 of the molar value. Counter-ions that a name gives are not always drawn.
readout: pIC50

{"columns": ["molecule", "measured"],
 "data": [
  ["CCCCc1nnc(OC[C@@H]2CCCN3CCCC[C@H]23)cc1-c1ccc(OC2CCCCC2)cc1 [Example 28, dihydrochloride]", 5.76],
  ["CCCCc1nnc(C(=O)N2CCC(O)C(CN(C)C)C2)cc1-c1ccc(OC2CCCCC2)cc1 (centres unmarked) [Example 106, dihydrochloride]", 5.66],
  ["CCCCc1nnc(OCC2(O)CCN(C)CC2)cc1-c1ccc(OCc2ccccc2)cc1 [Example 11, dihydrochloride]", 5.24],
  ["CCCCc1nnc(C(=O)NC2CCN(C)CC2)cc1-c1ccc(OC2CCCCC2)cc1 [Example 84, dihydrochloride]", 5.81],
  ["CCCCc1nnc(OC2CCN(C)CC2)cc1-c1ccc(OC(C)C)cc1 [Example 49, dihydrochloride]", 5.40],
  ["CCCCc1nnc(C(=O)N[C@@H]2CCN(C)C[C@@H]2OC)cc1-c1ccc(OC2CCCCC2)cc1 (stereo in doubt) [Example 107, dihydrochloride]", 6.01],
  ["CCCCc1nnc(C(=O)N[C@@H]2CN3CCC2CC3)cc1-c1ccc(OCc2ccccc2)cc1 [Example 82, dihydrochloride]", 5.90],
  ["CCCCc1nnc(C(=O)NCC2CN(C)CCC2OC)cc1-c1ccc(OC2CCCCC2)cc1 (centres unmarked) [Example 101, dihydrochloride]", 6.18]
]}

---

Measured pIC50 by item
# target.under.test: sRAGE binding to S100b (Homo sapiens, UniProt Q15109)
# Construct: extracellular domain can be isolated by proteolysis of RAGE to generate soluble RAGE (sRAGE) comprised of the V and C domains
# Sequence (Q15109 23-342 limits assumed): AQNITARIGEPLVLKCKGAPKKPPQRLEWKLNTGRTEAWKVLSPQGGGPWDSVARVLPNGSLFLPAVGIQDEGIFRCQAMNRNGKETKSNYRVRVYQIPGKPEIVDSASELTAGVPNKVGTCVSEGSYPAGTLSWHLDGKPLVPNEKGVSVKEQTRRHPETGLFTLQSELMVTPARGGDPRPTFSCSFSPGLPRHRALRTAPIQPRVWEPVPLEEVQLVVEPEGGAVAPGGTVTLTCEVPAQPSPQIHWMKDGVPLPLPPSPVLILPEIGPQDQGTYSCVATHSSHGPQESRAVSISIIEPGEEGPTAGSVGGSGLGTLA
# assay.name: RAGE binding assay (ELISA), S100b as the RAGE ligand
# condition.set: compounds tested in hydrochloride salt form, concentration at which 50% signal has been inhibited
pIC50: −log10 of the molar value. Structures can show the parent of a compound that is named as a salt.
readout: pIC50

{"columns": ["compound", "measured"],
 "data": [
  ["CCCCc1nnc(OC2CCN(C)CC2)cc1-c1ccc(OC2CCCCC2)c(C2=NC(C)(C)CO2)c1 [Example 76]", 5.68],
  ["CCCCc1nnc(C(=O)NC[C@@H]2CCCN2CC)cc1-c1ccc(OC2CCCCC2)cc1 [Example 92, dihydrochloride]", 5.76],
  ["CCCCc1nnc(OC2CCN(C)CC2)cc1-c1ccc(OC2CCCCC2)c(N(CC(C)C)S(C)(=O)=O)c1 [Example 64, dihydrochloride]", 6.06],
  ["CCCCc1nnc(OC2CCN(C)CC2)c(C(F)(F)F)c1-c1ccc(OC2CCCCC2)cc1 [Example 58, dihydrochloride]", 6.13],
  ["CCCCc1nnc(OC2CCN(CCOC)CC2)cc1-c1ccc(OC2CCCCC2)cc1 [Example 23, dihydrochloride]", 6.11],
  ["CCCCc1nnc(OC2CCN(C)CC2)cc1-c1ccc(OCC2CCN(C(C)=O)CC2)cc1 [Example 55, dihydrochloride]", 5.43],
  ["CCCCc1nnc(C(=O)NCC2CNCCO2)cc1-c1ccc(OC2CCCCC2)cc1 (stereo not shown) [Example 90, dihydrochloride]", 5.81],
  ["CCCCc1nnc(O[C@H]2CC[C@H](NC)CC2)cc1-c1ccc(OC2CCCCC2)cc1 [Example 37, dihydrochloride]", 5.73],
  ["CCCCc1nnc(C(=O)N[C@@H]2CN3CCC2CC3)cc1-c1ccc(OC2CCCCC2)cc1 [Example 85, dihydrochloride]", 5.83],
  ["CCCCc1nnc(OC2CCN(C)CC2)cc1-c1ccc(OC2CCCCC2)c(NC(=O)NC(C)(C)C)c1 [Example 77, dihydrochloride]", 6.17],
  ["CCCCc1nnc(OC2CCN(C)CC2)cc1-c1ccc(OC2CCCCC2)c(O)c1 [Example 74, dihydrochloride]", 5.79],
  ["CN1CCC(Oc2cc(-c3ccc(OC4CCCCC4)cc3)c(C3CCCCC3)nn2)CC1 [Example 60, dihydrochloride]", 5.95],
  ["CCCCc1nnc(C(=O)NC[C@H](O)CN(C)C)cc1-c1ccc(OC2CCCCC2)cc1 [Example 87, dihydrochloride]", 5.71],
  ["CCCCc1nnc(C(=O)NC[C@@H](O)CN(C)C)cc1-c1ccc(OC2CCCCC2)cc1 [Example 88, dihydrochloride]", 5.69],
  ["CCCCc1nnc(OC2CCN(C)CC2)cc1-c1ccc(OC2CCCCC2)c(N(CC(C)C)C(C)=O)c1 [Example 63, dihydrochloride]", 6.08],
  ["CCCCc1nnc(OC2CCN(C)CC2)cc1-c1ccc(OCC2CCOCC2)cc1 [Example 54, dihydrochloride]", 5.44],
  ["CCCCc1nnc(OC2CCN(C)CC2)cc1-c1ccc(Oc2ccc(C)nn2)cc1 [Example 57, trihydrochloride]", 5.49],
  ["CCCCc1nnc(OC[C@H]2CN(C)CC[C@H]2OC)cc1-c1ccc(OC2CCCCC2)cc1 (racemic) [Example 44, dihydrochloride]", 6.32],
  ["CCCCc1nnc(OC2CCN(C)CC2CO)cc1-c1ccc(OC2CCCCC2)cc1 (stereo not shown) [Example 38, dihydrochloride]", 5.58]
]}
